Biological target: β-secretase(BACE) (Homo sapiens)
Construct: purchased Panvera
Sequence (P56817 46-501): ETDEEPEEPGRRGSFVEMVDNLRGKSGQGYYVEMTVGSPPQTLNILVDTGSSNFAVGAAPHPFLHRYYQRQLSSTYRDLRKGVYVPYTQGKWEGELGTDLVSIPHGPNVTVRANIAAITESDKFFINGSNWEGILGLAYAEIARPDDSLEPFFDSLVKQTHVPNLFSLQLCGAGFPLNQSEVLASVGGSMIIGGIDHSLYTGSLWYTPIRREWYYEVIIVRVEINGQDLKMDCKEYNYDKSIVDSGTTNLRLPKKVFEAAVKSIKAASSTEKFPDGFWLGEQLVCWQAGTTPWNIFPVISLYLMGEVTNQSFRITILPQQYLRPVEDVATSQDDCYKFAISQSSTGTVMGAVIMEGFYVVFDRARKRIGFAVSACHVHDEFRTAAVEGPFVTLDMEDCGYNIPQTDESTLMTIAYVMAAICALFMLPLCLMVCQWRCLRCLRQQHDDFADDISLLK
Test: BACE FS1% Inhibition Assay
Format: biochemical
Details: 1 μM test compound; FS1 substrate

{"columns": ["molecule", "% Inhibition (FS)"],
 "data": [
  ["COc1ccccc1-c1ccc2c(c1)CN(CCNC(=O)C1CCOCC1)C(N)=N2", "<30%"],
  ["CCCC(=O)NCCN1Cc2cc(-c3ccc4ccccc4c3)ccc2N=C1N", "<30%"],
  ["NC1=Nc2ccc(C3=CCCCC3)cc2CN1CCNC(=O)C1CCC(C(F)(F)F)CC1 (centres unmarked)", "<30%"],
  ["CC(CC(=O)NCCN1Cc2cc(-c3ccccc3Cl)ccc2N=C1N)C(F)(F)F (centres unmarked)", "86%"],
  ["NC1=Nc2ccc(-c3ccccc3F)cc2CN1CCNC(=O)C1CCOCC1", "50%"],
  ["CN(CCCCC(=O)O)C(=O)CC[C@@H](C1CCCCC1)N1Cc2cc(Oc3ccccc3)ccc2N=C1N", "81%"],
  ["Cc1ccccc1-c1ccc2c(c1)CN(CCNC(=O)CC(C)C(F)(F)F)C(N)=N2 (centres unmarked)", "99%"],
  ["NC1=Nc2ccc(-c3ccccc3F)cc2CN1CCNC(=O)CCC(F)(F)F", "75%"]
]}

Data origin, for the record: patent US8383637B2
